System: HB4a r4.2 (HB4a transfected with human H-ras cDNA)
Assay: Methylene blue growth inhibition assay, HB4a ras
Format: cell-based
Details: 72 h, HB4a r4.2, 3 days, read-out: Cell Proliferation HB4a ras, IC50
Method: Human breast (BT474), head and neck (HN5) and gastric tumor (N87) cell lines were cultured in low glucose DMEM (Life Technologies 12320–032) containing 10% fetal bovine serum (FBS) at 37° C. in a humidified 10% CO2, 90% air incubator. […] Optical density at 620 nm was measured on a microplate reader. Percent inhibition of cell growth was calculated relative to vehicle treated control wells. […]
pIC50: −log10 of the molar value. Structures can show the parent of a compound that is named as a salt.
measured-quantity: pIC50

pIC50 reading for CS(=O)(=O)CCNCc1ccc(-c2cc3c(Nc4ccc(S(=O)(=O)c5ccccc5)cc4)ncnc3cn2)o1 [Example 3, dihydrochloride] : 4.30 to 4.60

Lab note: "CS(=O)(=O)CCNCc1ccc(-c2ccc3ncnc(Nc4ccc(OCc5ccccc5)c(Cl)c4)c3c2)o1" gave pIC50 of 4.30 to 4.60

Input "CS(=O)(=O)CCNCc1nc(-c2ccc3ncnc(Nc4ccc(OCc5cccc(F)c5)c(F)c4)c3c2)cs1" . Output pIC50: < 4.30

pIC50 recorded for this molecule, "COc1cc2ncnc(Nc3ccc4c(cnn4Cc4ccccc4)c3)c2cc1-c1ccc(CNCCS(C)(=O)=O)o1" , is 4.60 to 5.30

Record summary for "CS(=O)(=O)CCNCc1ccoc1-c1ccc2ncnc(Nc3ccc(OCc4ccccc4)cc3)c2c1" : reported pIC50 = < 4.30

molecule "CS(=O)(=O)CCNCc1coc(-c2ccc3ncnc(Nc4ccc(OCc5ccccc5)cc4)c3c2)c1" , pIC50 observed: < 4.30

pIC50 in this record for "CS(=O)(=O)CCNCc1nc(-c2ccc3ncnc(Nc4ccc(S(=O)(=O)c5ccccc5)cc4)c3c2)cs1" : 4.30 to 4.60

Origin of measurements: patent US7109333B2
